Here, each record is paired with measured TGI data.
# System: SF-295 CNS
# assayExplanation: NCI tumour cell line growth inhibition, 48 h

molecule | unitName | valueRelationSign | TGI
CC(C)=CCC12Cc3ccc(O)cc3C(C(C)CN1)C2C (stereo not drawn) | µM | > | 100
CC(C)N(C(=O)C12C3C4C1C1C2C3C41C(O)C(C)(C)C)C(C)C (stereo not drawn) | µM | > | 50
Cc1cc2c(cc1C)NC1=C(N2)OC(c2c[nH]c3ccc(COc4ccccc4)cc23)C1=O (stereo not drawn) | µM | > | 100
Clc1ccc([O][In]([O]c2ccc(Cl)cn2)[O]c2ccc(Cl)cn2)nc1 | µM | = | 47.5
O=P1(C(O)/C=C/c2ccccc2)N(Cc2ccccc2)[C@@H]2CCCC[C@H]2N1Cc1ccccc1 (stereo partly drawn) | µM | = | 26.8
CCCCCCc1cc2cc(-c3csc(-c4ccc(OC)cc4)n3)c(=O)oc2cc1O | µM | = | 28.5
NCCN(CCN(C(=O)Nc1ccccc1)c1ccccc1)C(=O)Nc1ccccc1 | µM | = | 36.4
Cc1cc(N(CCNc2ccnc3cc(Cl)ccc23)Cc2ccc3c(c2)OCO3)nc(N2CCN(C)CC2)n1 | µM | = | 3.42
